Target: Dmc1 (Saccharomyces cerevisiae) (UniProt P25453)
Sequence: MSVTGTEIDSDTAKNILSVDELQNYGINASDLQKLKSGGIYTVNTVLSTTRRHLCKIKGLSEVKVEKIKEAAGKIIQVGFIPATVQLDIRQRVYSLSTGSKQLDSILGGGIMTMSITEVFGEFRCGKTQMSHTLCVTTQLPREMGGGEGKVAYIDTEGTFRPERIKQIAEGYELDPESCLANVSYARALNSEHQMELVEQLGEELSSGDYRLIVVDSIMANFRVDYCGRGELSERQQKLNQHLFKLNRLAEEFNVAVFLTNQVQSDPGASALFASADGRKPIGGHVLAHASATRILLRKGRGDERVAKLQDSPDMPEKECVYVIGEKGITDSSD
Test: smFRET, RPA displacement
Settings: internal Cy3 between T12 and T18
measurement name: pKd
Field pKd (float): negative decimal logarithm of the concentration in molar.

query: Form field: reported pKd of TGGCGACGGCAGCGAGGCTTTTTTTTTTTTTTTTTTTTTTTTTTTTTT / GCCTCGCTGCCGTCGCCA [dT12+18]
result: 5.72
